Entry source: patent US8933228B2

Consider compounds characterized by their pIC50 with cSrc enzyme (Homo sapiens (Human), UniProt P12931).
Sequence (P12931 whole entry, looked up): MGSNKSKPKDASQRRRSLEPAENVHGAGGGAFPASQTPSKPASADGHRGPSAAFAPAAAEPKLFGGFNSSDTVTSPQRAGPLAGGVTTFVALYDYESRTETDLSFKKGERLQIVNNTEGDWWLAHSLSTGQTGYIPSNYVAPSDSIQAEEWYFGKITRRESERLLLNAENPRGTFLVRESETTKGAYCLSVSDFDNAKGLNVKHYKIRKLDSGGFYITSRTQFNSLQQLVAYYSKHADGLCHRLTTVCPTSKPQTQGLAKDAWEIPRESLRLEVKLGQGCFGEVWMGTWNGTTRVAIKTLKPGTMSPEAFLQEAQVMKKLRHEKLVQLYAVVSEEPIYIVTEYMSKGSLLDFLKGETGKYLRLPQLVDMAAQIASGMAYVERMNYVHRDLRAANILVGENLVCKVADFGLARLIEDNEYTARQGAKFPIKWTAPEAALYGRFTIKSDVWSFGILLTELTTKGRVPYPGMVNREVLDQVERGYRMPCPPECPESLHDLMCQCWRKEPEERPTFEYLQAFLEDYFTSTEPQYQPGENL
Bear in mind: pIC50 is minus log10 of a mol/L concentration; give just that figure.

Some solved entries appear below for comparison.
In [3]: df
Out[3]:
                      smiles_representation  measured_number
0  Cc1ccc(-n2nc(C(C)(C)C)cc2NC(=O)Nc2ccc(Oc3ncnc4[nH]c(=O)[nH]c34)c3ccccc23)cc1             7.46
1  CSc1ccc(-n2nc(C(C)(C)C)cc2NC(=O)Nc2ccc(Oc3ccnc4[nH]c(=O)cnc34)c3ccccc23)cc1             8.15
2  COc1ccc(-n2nc(C(C)(C)C)cc2NC(=O)Nc2ccc(OCc3ccnc4[nH]c(=O)cnc34)c3ccccc23)cc1             7.46
3  CC(C)(C)c1cc(NC(=O)Nc2ccc(Oc3ccnc4[nH]c(=O)[nH]c34)c3ncccc23)n(-c2ccccc2)n1             9.05

[Q] Lab note: need pIC50 for CC(C)(C)c1cc(NC(=O)Nc2ccc(Oc3ccnc4[nH]c(=O)[nH]c34)c3ccccc23)n(-c2ccccc2)n1 on cSrc enzyme (Homo sapiens (Human), UniProt P12931), anyone have it?
[A] 7.44

[Q] Lab note: need pIC50 for CC(C)(C)c1cc(NC(=O)Nc2ccc(Oc3ccnc4[nH]c(=O)cnc34)c3ccccc23)n(-c2ccc(S(C)(=O)=O)cc2)n1 on cSrc enzyme (Homo sapiens (Human), UniProt P12931), anyone have it?
[A] 8.22

[Q] Lab note: need pIC50 for COc1ccc(-n2nc(C(C)(C)C)cc2NC(=O)Nc2ccc(Oc3ccnc4[nH]c(=O)cnc34)c(Cl)c2Cl)cc1 on cSrc enzyme (Homo sapiens (Human), UniProt P12931), anyone have it?
[A] 8.15

[Q] Lab note: need pIC50 for COc1cc(-n2nc(C(C)(C)C)cc2NC(=O)Nc2ccc(Oc3ccnc4[nH]c(=O)cnc34)c3ccccc23)ccc1CO on cSrc enzyme (Homo sapiens (Human), UniProt P12931), anyone have it?
[A] 8.22

[Q] Lab note: need pIC50 for Cc1ccc(-n2nc(C3(C)CC3)cc2NC(=O)Nc2ccc(Oc3ccnc4[nH]c(=O)cnc34)c3ccccc23)cc1 on cSrc enzyme (Homo sapiens (Human), UniProt P12931), anyone have it?
[A] 8.00

[Q] Lab note: need pIC50 for COc1ccc(-n2nc(C(C)(C)C)cc2NC(=O)Nc2ccc(Oc3ccnc4[nH]c(=O)[nH]c34)c3ccccc23)cc1 on cSrc enzyme (Homo sapiens (Human), UniProt P12931), anyone have it?
[A] 8.15

[Q] Lab note: need pIC50 for CC(C)(C)c1cc(NC(=O)Nc2ccc(Oc3ccnc4[nH]c(=O)cnc34)c3ccccc23)n(-c2ccc(O)cc2)n1 on cSrc enzyme (Homo sapiens (Human), UniProt P12931), anyone have it?
[A] 8.00

[Q] Lab note: need pIC50 for Cc1ccc(-n2nc(C(C)(C)C)cc2NC(=O)Nc2ccc(Oc3ccnc4[nH]c(=O)c(C)nc34)c3ccccc23)cc1 on cSrc enzyme (Homo sapiens (Human), UniProt P12931), anyone have it?
[A] 8.15

[Q] Lab note: need pIC50 for COc1ccc(-n2nc(C(C)(C)C)cc2NC(=O)Nc2ccc(Oc3ccnc4[nH]c(=O)cnc34)c3ccccc23)cc1 on cSrc enzyme (Homo sapiens (Human), UniProt P12931), anyone have it?
[A] 7.92

[Q] Lab note: need pIC50 for COc1ccc(-n2nc(C(C)(C)C)cc2NC(=O)Nc2ccc(Oc3ccnc4[nH]c(=O)cnc34)c3ccccc23)cn1 on cSrc enzyme (Homo sapiens (Human), UniProt P12931), anyone have it?
[A] 8.10

[Q] Lab note: need pIC50 for COc1ccc(-n2nc(C(C)(C)C)cc2NC(=O)Nc2ccc(Oc3ccnc4[nH]c(=O)n(C)c34)c3ccccc23)cc1 on cSrc enzyme (Homo sapiens (Human), UniProt P12931), anyone have it?
[A] 8.15

[Q] Lab note: need pIC50 for COc1ccc(-n2nc(C(C)(C)C)cc2NC(=O)Nc2ccc(Oc3ncnc4[nH]c(=O)cnc34)c3ccccc23)cc1 on cSrc enzyme (Homo sapiens (Human), UniProt P12931), anyone have it?
[A] 6.39
